# Test system: SN12C renal
# assay protocol: NCI-60 one-dose screen, 48 h
# study conditions: 10 µM unless noted
About 83,000 compounds went through this panel and 20% of them were active in at least one assay; those are over-represented in the sample as a whole. Active and inactive are the calls of the source. Rule for the calls: active = growth percent below 10; inactive = the rest.
# output must be one of 1 for active, 0 for inactive

Use the examples below as a reference point.
Cc1ccccc1/C=C/C(=O)c1cccc(OCCCCOc2cccc(C(=O)/C=C/c3ccccc3C)c2)c1 :: 0
COc1cc2cc(NCc3cccc(Cl)c3)nc(C)c2cc1OC :: 0
CCCCCCCCCCCCCCCCCCOc1ccccc1CC(=O)OCC[N+](C)(C)C :: 0

// return assay outcome for Nc1ncnc2c1C(c1ccc(Br)cc1)c1sc3c(F)cccc3c1O2 (stereo not given)
0

// return assay outcome for `CN(C)CC(C)(C)C(=O)/C=C/c1ccccc1`
1

// return assay outcome for `CC(C)=CCC[C@](C)(O)[C@H]1CC[C@]2(C)[C@@H]1CC[C@@H]1[C@@]3(C)C/C(=C/c4ccco4)C(=O)C(C)(C)[C@@H]3CC[C@]12C`
0

// return assay outcome for `Nc1nc2ccccc2c2c(=O)c3cccc(Cl)c3sc12`
0

// return assay outcome for `COCCn1cc(-c2csc(-c3cn(C)c4ccc(Br)cc34)n2)c2cccnc21`
0

// return assay outcome for `COc1ccc(/C=C(\C#N)n2nnc3cc(F)c(F)cc32)cc1`
0

====

# Tested on: SW-620 colon
# assay protocol: NCI-60 one-dose screen, 48 h (100 = growth as untreated, 0 = no growth, -100 = all killed)
# study conditions: 10 µM unless noted
This is part of a sample that, as a whole, favours compounds with a hit. Of some 83,000 tested, about 20% had one in any assay.
Mark f for growth values under 80%, and t for everything at or above.

COc1ccc(\C=N/N=C(N)/C(N)=N\N=C/c2ccc(OC)cc2)cc1 :: t
CC/C(=C(/c1ccc(Cl)cc1)c1ccc(OCCN(C)C)cc1)c1ccc(Cl)cc1 :: f
C=C1C(=O)O[C@H]2[C@H]1CC/C(COC(=O)c1cc3ccccc3s1)=C\CC[C@@]1(C)O[C@@H]21 :: f
C=C(C)[C@@H]1CC[C@]2(CO)CC[C@]3(C)[C@H](CC[C@@H]4[C@@]5(C)CC[C@H](NCO)C(C)(C)[C@@H]5CC[C@]43C)[C@@H]12 :: f
CC(C)(Sc1cc(C(C)(C)C)c(O)c(C(C)(C)C)c1)Sc1cc(C(C)(C)C)c(OC(=O)CCCC(=O)O)c(C(C)(C)C)c1 :: f
COc1ccc(/C=C(\C#N)n2nnc3cc(Cl)ccc32)cc1 :: f
CCOC(=O)c1ccc2c(c1)nc(-c1ccccc1)n2C1CCCCC1 :: t
O=[N+]([O-])c1cccc(-c2nc3cc4nc5ccccc5[nH]c4cc3n2)c1 :: t
CC(=O)c1c(C)nc2ccccc2c1/C=C/c1ccc(F)cc1 :: t
COc1ccc(/C=C/C(=O)c2cccc(OCCCCOc3cccc(C(=O)/C=C/c4ccc(OC)c(OC)c4)c3)c2)cc1OC :: t

Reported growth reaches at least 80% for `Nc1n[nH]c2cccc(C#Cc3cccc(NC(=O)c4cc(F)cc(C(F)(F)F)c4)c3)c12` ?
f

Reported growth reaches at least 80% for `O=C1/C(=C/c2ccc([N+](=O)[O-])cc2)COc2ccc(O)cc21` ?
f

Reported growth reaches at least 80% for `CCOc1ccc(NC(=O)CSc2oc(-c3ccccc3)nc2S(=O)(=O)c2ccc(C)cc2)cc1` ?
f

Reported growth reaches at least 80% for `Oc1c(I)cc(I)cc1CNCc1ccccn1` ?
f

Reported growth reaches at least 80% for `O=C(N/N=C/c1ccc(Cl)cc1)c1[nH]c2ccc(Cl)cc2c1-c1ccccc1` ?
f

====

# Test system: SF-268 CNS
# assay protocol: NCI-60 one-dose screen, 48 h (100 = growth as untreated, 0 = no growth, -100 = all killed)
# study conditions: 10 µM unless noted
About 83,000 compounds went through this panel and 20% of them were active in at least one assay; those are over-represented in the sample as a whole.
Each record's class is read off its growth using these ranges: L (below 50%), M (50% to below 90%), H (90% or more)

COc1cc2ncnc(Nc3ccc(F)c(Cl)c3)c2cc1OCC(=O)N1CCN(c2ccccc2)CC1 :: M
COC1=CC(c2ccc[nH]2)=N/C1=C\c1[nH]c(C)c(CC(=O)NCc2ccccc2)c1C :: L
CCNCCNc1cc(-c2ccc(C(F)(F)F)cc2)c(C#N)c2nc3ccccc3n12 :: L
COc1ccc2[nH]c(C(=O)N3CCN(C(=O)OCc4ccc5c(Cl)cc(Cl)c(O)c5n4)CC3)cc2c1 :: L
Cc1ccc(-c2nc(N3CCCNCC3)c3oc(-c4ccccc4)nc3n2)cc1 :: L
O=C(CSc1oc(-c2ccccc2)nc1S(=O)(=O)c1ccccc1)Nc1ccc(F)cc1 :: M
CCOc1nc(-c2ccccc2)cc2c(O)c(C(=O)N/N=C/c3ccccc3)[nH]c(=O)c12 :: H
CCOC(=O)n1cc(-c2nonc2-c2cn(C(=O)OCC)c3ccc(Br)cc23)c2ccccc21 :: M

Looking at Nc1n[nH]c2ccc([C@H]3[C@@H]4C5CCC(C5)[C@@H]4c4c(ccc5[nH]ncc45)N3S(=O)(=O)C3CC3)cc12 (stereo partly drawn) , which class would you pick?
L

Looking at `O=C(CN1C(=O)S/C(=C\C(Cl)=C\c2ccccc2)C1=O)NCCc1ccc(O)cc1` , which class would you pick?
M

Looking at CCN1C(=S)N(c2ccccc2)C2NC(=S)N(/N=C/C=C/c3ccccc3OC)C21 (stereo not drawn) , which class would you pick?
M

Looking at `CCCOC(=O)Nc1nc2ccc(SCC(C)C)cc2s1` , which class would you pick?
M

Looking at `O=c1scc(-c2ccc(C(F)(F)F)cc2)s1` , which class would you pick?
H

Looking at `COC1=CC(c2ccc[nH]2)=N/C1=C\c1[nH]c(C)c(CC(=O)OCc2ccccc2)c1CCC(=O)OCc1ccccc1` , which class would you pick?
L

Looking at `COc1ccc(C/C(C)=C(\c2ccc(Cl)cc2)c2ccc(OCCN3CCCCC3)cc2)cc1` , which class would you pick?
H

====

# System: TK-10 renal
# assay protocol: NCI-60 one-dose screen, 48 h (100 = growth as untreated, 0 = no growth, -100 = all killed)
# study conditions: 10 µM unless noted
This is part of a sample that, as a whole, favours compounds with a hit. Of some 83,000 tested, about 20% had one in any assay.
Mark f for growth values under 80%, and t for everything at or above.

Use the examples below as a reference point.
Cc1ccc(Nc2cc(N)nc(N)n2)cc1Cl :: t
C#CCOc1cccc(Nc2ncnc3ccc(NC(=O)C=C)cc23)c1 :: f
Nc1nc(N)c(-c2ccc(Cl)c(Cl)c2)c(CBr)n1 :: t
NC(N)=NCCCCCNc1noc(Cc2c[nH]c3cc(Br)ccc23)n1 :: f

Reported growth reaches at least 80% for `CCCc1c(OC(=O)c2ccccc2)nc2[nH]c(=O)sc2c1C` ?
t

Reported growth reaches at least 80% for `NC(=O)c1cc(I)ccc1NC(=O)/C=C/c1ccccc1` ?
f

Reported growth reaches at least 80% for `Cc1ccc(-c2nc(N3CCCNCC3)c3oc(-c4ccccc4)nc3n2)cc1` ?
f

Reported growth reaches at least 80% for `CCCCNC(=O)CC1=C(C)/C(=C/c2[nH]c(-c3ccc[nH]3)cc2OC)N=C1C` ?
f

Reported growth reaches at least 80% for CCc1ncnc2c1ccn2C(C)c1ccc(OC)c(F)c1 (stereo not given) ?
f

====

# Test system: COLO 205 colon
# assay protocol: NCI-60 one-dose screen, 48 h
# study conditions: 10 µM unless noted
About 83,000 compounds went through this panel and 20% of them were active in at least one assay; those are over-represented in the sample as a whole. Activity calls are given as the source filed them. Rule for the calls: active = growth percent below 10; inactive = the rest.
# output must be one of active, inactive

Use the examples below as a reference point.
O=C(N(c1ccccc1)c1ccccc1)n1cc(I)c2nc(Cl)nc(Cl)c21 :: inactive
Cc1cn(-c2cc(NC(=O)c3cncc(C#Cc4cnc(N)c5ncccc45)c3)cc(C(F)(F)F)c2)cn1 :: inactive
Nc1ncnc2c1c(-c1cccc(Cl)c1)nn2CC(=O)N1CCOCC1 :: inactive
Cc1ccc(NC(=O)c2sc3nc(C)c(Br)c(C)c3c2N)cc1 :: inactive
Nc1ncnc2c1N=C(c1ccc(Br)cc1)CC(c1cccc(Nc3ccnc4cc(C(F)(F)F)ccc34)c1)N2 (configuration not stated) :: inactive

// switching to the query molecule
// return assay outcome for `CCCn1cc2c(=O)nc3sc(Cc4ccccc4)c(C)n3c2n1`
inactive

====

Exercise: state measured growth for each of the compounds provided.
# Test system: HOP-62 NSCLC
# assay protocol: NCI-60 one-dose screen, 48 h (100 = growth as untreated, 0 = no growth, -100 = all killed)
# study conditions: 10 µM unless noted
Compounds without any hit were thinned out: in the full panel of roughly 83,000, 20% have a hit.
One number for each entry, in %.

Past entries and their recorded results:
C=CCSc1nnc(NC(=O)CCl)s1 :: 109
O=C(O)c1cn(C2CC2)c2cc(N3CCN(C(=O)N(c4ccccc4)c4nc(-c5ccccc5)cs4)CC3)c(F)cc2c1=O :: -1.15
Cn1cc(-c2ccc3nc(-c4ccc(CC(=O)ONc5cc(C(C)(C)C)on5)cc4)cnc3c2)cn1 :: 37.1
CC(O)(c1ccccc1)C(c1ccccc1)C1CCCCN1 (centres undefined) :: 99.3
O=C(CSC(=S)n1cnnc1)NC(=O)c1ccccc1 :: 106
Cn1c(I)c(C#CCO[Si](C)(C)C(C)(C)C)c(=O)[nH]c1=O :: 96.9

Batch: growth for all items listed.
1. CCN(C)S(=O)(=O)Nc1cccc(Nc2ncnc3cc(NC(=O)CCl)ccc23)c1Cl
2. C=C1C(=O)O[C@H]2[C@H]1CC/C(COC(=O)c1cc3ccccc3s1)=C\CC[C@@]1(C)O[C@@H]21
3. O=C(O)CCCN1C(=O)/C(=C/c2cn(-c3ccccc3)nc2-c2ccc([N+](=O)[O-])cc2)SC1=S
4. COC(=O)c1cc(N=C2NC(=O)/C(=C/C=C/c3ccccc3)S2)ccc1O
5. Clc1ccc2c(c1)C(c1c[nH]c3ccccc13)(c1c[nH]c3ccccc13)CCO2

[-50.1, -61.6, 49.6, 44.5, 46.4]

Batch: growth for all items listed.
1. NC(=O)c1cc(I)ccc1NC(=O)/C=C/c1ccccc1
2. O=C(Nc1ccc(OS(=O)(=O)c2ccc(F)cc2)cc1)C1CCCCCC1
3. Clc1cccc(Nc2ncnc3ccc(-c4cnc5[nH]ccc5c4)cc23)c1
4. N#Cc1c(-c2ccccc2)[nH]c2ncc(-c3ccccc3)n2c1=O
5. CCc1ccc(CCCC(=O)O)cc1

1: -35.5; 2: 98.6; 3: 86.9; 4: 75.6; 5: 87

Batch: growth for all items listed.
1. O=C1Nc2ccccc2/C1=C/c1nc2ccccc2c(=O)[nH]1
2. O=S(=O)(NCCNc1nccc(-c2c(-c3ccc(F)c(O)c3)nc3sccn23)n1)c1ccc(O)cc1
3. COc1ccc(OC)c(-c2nc(SCC(=O)c3ccc(C#N)cc3)[nH]c(=O)c2C#N)c1
4. CCCCNC(=O)CC1=C(C)/C(=C/c2[nH]c(-c3ccc[nH]3)cc2OC)N=C1C
5. O=C(c1nn(-c2ccccc2)c2c1CC(NCc1ccc(F)cc1)CC2)N1CCCCC1 (centres undefined)
6. COc1cc2nc3cc([N+](=O)[O-])ccc3c(NCCNCC(C)O)c2cc1OC (centres undefined)

1: 76.3; 2: 78.7; 3: 99.7; 4: 50.5; 5: 114; 6: -19.2
